pKi: −log10 of the molar value.
Literature roundup of Interstitial collagenase (Homo sapiens, UniProt P03956) data, read-out pKi.

// worked examples, pKi included
# molecule, experimentalResult
rows = [
    ("CNc1nc([C@H]2c3ccccc3CN2C(=O)[C@H](O)[C@@H](O)C(=O)N[C@H](C)c2ccc(-n3cccn3)cc2)cs1", "< 4.40"),
    ("Cc1cc(COc2ccc(NC(=O)[C@H]3[C@H](C(=O)NO)CCCN3C)cc2)c2ccccc2n1", "< 5.31"),
    ("Cc1cc(COc2ccc(S(=O)(=O)CC3C(C(=O)NO)CCCN3C)cc2)c2ccccc2n1 (stereo not given)", "< 5.31"),
    ("Cc1cc(COc2ccc(N3CC[C@H]([C@@H](C)C(=O)NO)C3=O)cc2)c2ccccc2n1", "< 5.30"),
    ("O=C(NO)[C@H]1CN(C(=O)C2CC2)CC[C@@H]1C(=O)Nc1ccc(Oc2ccnc3ccccc23)cc1", "< 5.31"),
]

Entry `Cc1cc(COc2ccc(NC(=O)[C@@H]3[C@@H](C(=O)NO)CCCN3Cc3nccs3)cc2)c2ccccc2n1` , Interstitial collagenase (Homo sapiens, UniProt P03956) data, pKi value: < 5.31

Entry `CNC(=O)[C@@H]1CCCCN(S(=O)(=O)c2ccc(N)cc2)CCC[C@H](C(=O)NO)[C@@H](CC(C)C)C(=O)N1` , Interstitial collagenase (Homo sapiens, UniProt P03956) data, pKi value: > 9.00

Entry `CNC(=O)CNC(=O)Nc1n[nH]c(=S)s1` , Interstitial collagenase (Homo sapiens, UniProt P03956) data, pKi value: < 4.00

Entry `CC(C)C[C@H](NC(=O)[C@H](CCc1ccccc1)CP(=O)(O)CCCCNC(=O)Oc1ccccc1)C(=O)Nc1ccccc1` , Interstitial collagenase (Homo sapiens, UniProt P03956) data, pKi value: ≤ 5.00

Entry `CNC(=O)[C@@H](Cc1ccccc1)NC(=O)Nc1n[nH]c(=S)s1` , Interstitial collagenase (Homo sapiens, UniProt P03956) data, pKi value: < 3.70

----------
Literature roundup of Interstitial collagenase (Homo sapiens) data, read-out Ki.

# smilesEntry, Ki
rows = [
    ("C[C@H](C(=O)NO)N1CCNc2cc(OCc3cc(Cl)cc(Cl)c3)ccc2S1(=O)=O", "> 4.95 µM"),
]

Entry `CC(C)C[C@H](NC(=O)[C@@H](CCC(=O)O)CCc1ccccc1)C(=O)Nc1ccccc1` , Interstitial collagenase (Homo sapiens) data, Ki value: > 10 µM

Entry `CNC(=O)[C@H](CC(C)C)NC(=O)Nc1nnc(S)s1` , Interstitial collagenase (Homo sapiens) data, Ki value: > 200 µM

Entry `O=C(NO)[C@@H](NCC1CC1)[C@@H](Cc1cccc(O)c1)C(=O)N[C@H]1c2ccccc2C[C@H]1O` , Interstitial collagenase (Homo sapiens) data, Ki value: > 8 µM

Entry `O=C(N[C@@H]1COC[C@@H]1C(=O)NO)c1ccc(Cn2c(C(F)(F)F)nc3ccccc32)cc1` , Interstitial collagenase (Homo sapiens) data, Ki value: > 4.95 µM
